Test name: probe aInhba binding on compound microarray – biochemical, small-molecule microarray, 635/667 nm fluorescence, primary screen (AID 1148);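 further: score merges 667nm spot fluorescence with signal-to-noise for antibody binding to printed compounds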
Measurement context: higher = more signal
Endpoint: composite z-score
Please give the numeric answer without any surrounding text.

*Q* Which composite z-score value belongs to C=CCC(OC(C)=O)[C@@H]1[C@@H](N(Cc2cccc3ccccc23)C(=O)c2ccc(C)cc2)c2cc(OCCCO)ccc2N1C(=O)c1ccc2ccccc2c1 (some centres undefined) ?
*A* 0.0797

*Q* # query: composite z-score of entry `NC(=O)NCC#Cc1ccc2c(c1)[C@]1(C(=O)N2)[C@H](c2ccc(OCCO)cc2)N2[C@H](c3ccccc3)[C@H](c3ccccc3)OC(=O)[C@H]2[C@@H]1C(=O)N1CCN(c2ncccn2)CC1`
*A* 0.15

*Q* May I ask what composite z-score has been recorded for `C=CCOc1ccc([C@@H]2CC=C(C(=O)OCC)[C@H](c3cccc(Br)c3)N2S(=O)(=O)c2ccc(C)cc2)cc1` ?
*A* -0.0831

*Q* What value of composite z-score has been reported for the following compound? `CC(C)C[C@@H]1NC(=O)[C@@H]2C[C@H](C(=O)NCCCC[N+](C)(C)C)[C@H](c3cccc(OCCO)c3)N2C1=O`
*A* -0.025

----------
Test system: Human papillomavirus type 1a E7 protein (residues 1-88)
Test name: HPV1a E7 small-molecule binders, primary screen, biochemical, small-molecule microarray, residues 1-88, 635 nm (AID 1129)
Measurement context: small-molecule microarray binding, fluorescence 635 nm; higher = more signal
Endpoint: composite z-score

Example results:
INSERT INTO assay_data (compound, recorded_value) VALUES
  ('CN(C)CCCCNC(=O)[C@H]1C[C@H]2C(=O)N[C@@H](CCCC[N+](C)(C)C)C(=O)N2[C@H]1c1cccc(OCCO)c1', 0.809),
  ('CC(C)C[C@@H]1NC(=O)[C@@H]2C[C@H](C(=O)NCc3ccc(F)cc3)[C@H](c3ccc(O)cc3)N2C1=O', 0.0885),
  ('COC(=O)[C@@]1(Cc2ccc(OC)cc2)[C@H]2c3cc(C(=O)N(C)C)n(Cc4cc(C)n(C)n4)c3C[C@H]2CN1C(=O)c1ccccc1', 1.29),
  ('Cc1ccc(C(C)CC(O)C2C=CC3C(=O)N(Cc4ccccc4)C(=O)C3N2n2cnnc2)o1 (stereo not given)', 0.942),
  ('COc1ccc(C(=O)Nc2ccc3c(c2)[C@]2(O[C@@H](CCO)[C@H]([Si](C)(C)c4ccc(OC)cc4)[C@H]2C)C(=O)N3Cc2ccccc2)cc1', 0.809);

*Q* Param readout= composite z-score; system= Human papillomavirus type 1a E7 protein (residues 1-88); entry= `Cc1ccc(S[C@]2(C(=O)NCC(C)C)CC(=O)N(C3CCCCC3)[C@@H]2c2ccc(CO)cc2I)cc1` ; returns value.
*A* 1.17

*Q* Request - read-out composite z-score | tested on Human papillomavirus type 1a E7 protein (residues 1-88) | compound `COC(=O)[C@@]1(Cc2ccccc2)[C@H]2c3cc(C(=O)N(C)C)n(Cc4ccc(O)c(OC)c4)c3C[C@H]2CN1C(=O)c1ccccc1`
*A* 1.11

*Q* Give Human papillomavirus type 1a E7 protein (residues 1-88) composite z-score for `COCCOC(=O)N1C(=O)[C@@]2(c3cc(C#Cc4ccc(OC)cc4)ccc31)[C@H](c1ccc(OCCO)cc1)N1[C@H](c3ccccc3)[C@H](c3ccccc3)OC(=O)[C@H]1[C@@H]2C(N)=O`
*A* 1.13

*Q* Test system Human papillomavirus type 1a E7 protein (residues 1-88); read-out composite z-score; what value for `Cc1ccc(S[C@]2(C(=O)O)CC(=O)N(C3CCCCC3)[C@@H]2c2ccc(CO)cc2)cc1` ?
*A* 1.16

*Q* Hi! What's the reported composite z-score for CCCCC(CC)C(O)C1C=CC2C(=O)NC(=O)C2N1Nc1ccccn1 (stereo not given) on Human papillomavirus type 1a E7 protein (residues 1-88)?
*A* 1.17

*Q* Which measured composite z-score belongs to `[N-]=[N+]=NCc1ccccc1C[C@]1(C(=O)NCCN2CCOCC2)COC(c2ccc(OCCCO)cc2)=N1` , tested on Human papillomavirus type 1a E7 protein (residues 1-88)?
*A* 1.24
